Taken from the supplement of paper PMC12645437.

Target: T1, CRBN, Q96SW2;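 further: pooled lentiviral library of zinc finger degron-EGFP fusions in mCherry-positive Jurkat cells, FACS-sorted after compound exposure, with degron abundance counted by next-generation sequencing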
T1 chain: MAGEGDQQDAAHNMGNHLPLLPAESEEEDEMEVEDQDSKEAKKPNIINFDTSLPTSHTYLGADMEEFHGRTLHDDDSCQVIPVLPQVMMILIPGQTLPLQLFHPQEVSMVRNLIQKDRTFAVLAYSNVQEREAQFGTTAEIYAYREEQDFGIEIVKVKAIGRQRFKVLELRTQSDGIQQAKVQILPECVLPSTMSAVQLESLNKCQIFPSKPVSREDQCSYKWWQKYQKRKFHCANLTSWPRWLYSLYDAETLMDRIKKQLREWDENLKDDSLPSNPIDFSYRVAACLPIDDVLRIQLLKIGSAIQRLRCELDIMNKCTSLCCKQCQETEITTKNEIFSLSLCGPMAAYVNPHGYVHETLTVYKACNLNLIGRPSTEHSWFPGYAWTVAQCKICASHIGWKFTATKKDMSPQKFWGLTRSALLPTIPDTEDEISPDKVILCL
Experiment: log2 fold change of degron read counts, EGFP-low vs EGFP+ sorted cells (limma voom), compound-induced degradation; higher = more compound-induced degradation of the degron-EGFP fusion; degrons are variants of IKZF1/3 zinc finger 2; compound dose not given here
Settings: Jurkat; 18 h; compound: thalidomide
Over roughly 8,300 sequences, “log2 fold change of degron read counts, EGFP-low vs EGFP+ sorted cells (limma voom), compound-induced degradation” has its median near -1.1; the highest 2% begin near 3.2. This is one part of a sample in which the highest values are shown more often than they occur.
log2 fold change of degron read counts listing for selected sequences.
Respond with the number and no other words.

Worked examples, 3 sequences total:
                            sequence_string  assay_result
0  FLCPICGATFTQKGNLLRHIKL [46F_47L_49P_50I_52G_53A_54T_55F_67L_, Q9UKT9]          1.68
1  FSCEICGATFTQKGNLLRHIKL [46F_47S_49E_50I_52G_53A_54T_55F_67L_, Q9UKT9]          1.36
2  FMCEICGATFTQKGNLLRHIKL [46F_47M_49E_50I_52G_53A_54T_55F_67L_, Q9UKT9]          1.15

From here, focus on the item given below.
Prompt: Sample FDCPICGRVFTQKGNLLRHIKL [46F_47D_49P_50I_52G_53R_54V_55F_67L_, Q9UKT9] — what was its log2 fold change of degron read counts?
Response: 1.97
